Where these numbers come from: the RNAGym collection of RNA variant scans (doi:10.1002/anie.201605470)

B1: Osa-1-4 twister ribozyme (parent)
chain: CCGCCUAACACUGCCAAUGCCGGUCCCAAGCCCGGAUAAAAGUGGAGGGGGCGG

variants of: B1; experiment: self-cleavage, relative activity (ratio to wild type); higher = more cleavage; co-transcriptional
Class Y: self-cleavage at least 0.07. Class N: self-cleavage below 0.07.

Please review the entries below; each comes with its answer.
INSERT INTO results (polymer_sequence, category) VALUES
  ('CCGCCUAACACUGCCACUGGCGGUCCCAAGCCCGGAUAAAAGUGGAGGGGGCGG [A17C C20G]', 'Y'),
  ('CCGCCUCACACUGCCACUGCCGGUCCCAAGCCCGGAUAAAAGUGGAGGGGGCGG [A17C A7C]', 'Y'),
  ('CCGCCUAACACUGCCAAUGCCGGUCCCAAGCACGGAGAAAAGUGGAGGGGGCGG [C32A U37G]', 'Y'),
  ('CCGCCUAACACUGCCAAUGCCGGUCCCAGGCCCGCAUAAAAGUGGAGGGGGCGG [A29G G35C]', 'N'),
  ('CCGCCUAACACGGCCAAUCCCGGUCCCAAGCCCGGAUAAAAGUGGAGGGGGCGG [G19C U12G]', 'N'),
  ('CCGCCUAACACUGCCAAUGCCGGUCCCAAGCCCGGUUAAAAGGGGAGGGGGCGG [A36U U43G]', 'Y');

[ask] Quick check: does CCGCCUAACACUGCCAAUGCCGGUCCCAAGCCCGGAAAAAAGUGGAGGGAGCGG [G50A U37A] have self-cleavage greater than or equal to 0.07?
[reply] Y

[ask] Let us now turn to CCGCCUAACACUGCCAAUGCCGGUCCCAAGCCCGGAUAAAAGGAGAGGGGGCGG [G44A U43G]
[reply] Y

[ask] Let us now turn to CCGCCUAACACUGUCAAUGCCGGUCCCAAGCCCGGCUAAAAGUGGAGGGGGCGG [A36C C14U]
[reply] Y

[ask] Let us now turn to CCGCCUAACCCUGCCAAUGCCGGUCCCAAGCCCGGAUAAAAGUGCAGGGGGCGG [A10C G45C]
[reply] N

[ask] Let us now turn to CCGCCUAACACUGCCAAUGCAGGUCCCAAGCCCGGGUAAAAGUGGAGGGGGCGG [A36G C21A]
[reply] Y

[ask] Let us now turn to CCGCCUAACACUGCCAAUGCCGGUCCCAGGCUCGGAUAAAAGUGGAGGGGGCGG [A29G C32U]
[reply] N

[ask] Let us now turn to CCGCCUAACACUGCCAAUGCCUGUCCGAAGCCCGGAUAAAAGUGGAGGGGGCGG [C27G G22U]
[reply] N

[ask] Let us now turn to CCGCCUAACACUACCAAUGCCCGUCCCAAGCCCGGAUAAAAGUGGAGGGGGCGG [G13A G22C]
[reply] N

[ask] Let us now turn to CCGCCUAACACUGCCAAUGCCGGUCCCAAGCCCGGAUAAAAGCGUAGGGGGCGG [G45U U43C]
[reply] N

[ask] Let us now turn to CCGCCUAACACUGCCAAUGACGGUCCCAAGCUCGGAUAAAAGUGGAGGGGGCGG [C20A C32U]
[reply] Y

[ask] Let us now turn to CCGCCUAACUCUGCCAAUGCCGCUCCCAAGCCCGGAUAAAAGUGGAGGGGGCGG [A10U G23C]
[reply] N

[ask] Let us now turn to CCGCCUAACACUGCCAAUCCCGGUCCCAUGCCCGGAUAAAAGUGGAGGGGGCGG [A29U G19C]
[reply] N

[ask] Let us now turn to CCGCCUAACACUGCCAAUGCCGGUCCCAAGCCCGCAUAAAAGUGGAGGGGGCGC [G35C G54C]
[reply] Y

[ask] Let us now turn to CCGCCUAACACUGCCAAUGCCGGUCCCAAGCCCGGAUAAAAGUGGAGGGGGCGU [G54U]
[reply] Y
